Molecular target: T1, PSMA Fab (006 PSMA Fab) (biotinylated (site not stated))
T1 construct: also called Anti-PSMA Fab; anti-PSMA Fab
Assay: clonal phage ELISA on captured PSMA Fab, wells pre-incubated with PSMA antigen as competitor
Where no end group is shown, it is not given here.
Quick rule: phage binding ELISA signal (Anti-PSMA Fab with PSMA) of at least 0.07 means satisfied, below that means not satisfied.

1. YEQRCVPVWMCEGF (not shown: fused to pIII of the bacteriophage) [Phage-3348]    not satisfied
2. HIKECTPRWMCVGF (cysteine pairing not given here; also: fused to pIII of bacteriophage, not shown: fused to pIII of the bacteriophage) [Phage-3349]    satisfied
3. MERLCMPSWMCGGF (cysteine pairing not given here; also: fused to pIII of bacteriophage, not shown: fused to pIII of the bacteriophage) [Phage-3344]    satisfied
4. TAPMCKPEWMCVAL (cysteine pairing not given here; also: fused to pIII of bacteriophage, not shown: fused to pIII of the bacteriophage) [Phage-3343]    satisfied
